test: protease stability score; higher = more stable; yeast display proteolysis, trypsin and chymotrypsin
Assay Metric: protease stability score
I only need the number, thanks.

Task item: Given the sequence SELEHLMEEAWRLLLEAIRTGDEKLTNKLLDPNVRIEVGEFHYHGRELMLTWFKYELKHLRFKDSRIDHFDVVDGVAKMRTTDTNLVNGRDVTLDVIYVILKVNGRWVFHSMEIR , what is its reported protease stability score?
Reply: 0.861

Task item: // same read-out, input: DSHRELLERFARLMLHLWLTGDEDELHKYMDPHVRYHQGEFHIHGREEVTRWASELHKKLGINHEDQERVNIYDGKNHVDTRLDINGRHLRVELRIDVWNGRIREVQVHHR
Reply: 1.41

Task item: // same read-out, input: DEDQKEAEDMAELITKLINTGDEEHWLDRADPHMKVDIDGVESVGREEIERLLHELIRKWGVSKIESRNKHVTIINGRVHFRINIHVNGQEYLLILINDKVDGRWRVQETRVHIT
Reply: 1.63

----------
I'd appreciate it if you could supply protease stability score values for the items below.
experiment: protease stability score; higher = more stable; yeast display proteolysis, trypsin and chymotrypsin;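 also: relative to predicted unfolded state with 0 unfolded-like and 1 meaning tenfold more protease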
I only need the number, thanks.

Task item: Given the sequence DEKSDIYHQALRLWIDTMVTGDENLYERLLDPHVRVEIGDKEIHGRERVSEFFKRFAEHLGVDHVELHDFRYQGDYVRLRISIEYNGQHLDTDLIITKINGRWYIHSEKYK , what is its reported protease stability score?
Reply: 1.26

Task item: // same read-out, input: DDDERDMDLALELIIRTIRTGDWELQSRLIDPHARLHIDGRDLHGMEEYVTILVEHWRRIKGVKVSITLHDRDVFDGVLHLDTEVELDFNGVRLHMKTEIISLKYNGRWFIKEIRVR
Reply: 0.654

Task item: // same read-out, input: SEDETLMRHLVQLFIRREATGDWKKLDELFDPNVRIDINGVEYHGREDWLKHYEDLLKRIKNVRIEIDDQHMEVVGDFIHYDLHGTLEVNGRNIRMQIIIHIRKIDGKWLIEEQIIIIR
Reply: 1.4

Task item: // same read-out, input: TELEESAKRAVKHVVDLILTGDWELFEEMFDPHTRILVGDKHMHGREMASEHLRFWYEHLGVKHIEIRRIDVQGDKVVSDVETDIDGRHIRVNLVIHKVDGKWIIHSIHLD
Reply: 1.59

Task item: // same read-out, input: HENEENETEAIRLFLRVMLTGDEHDLKRMFDPDMKVEIGDKRIVGRERVLEHWLHTAERFGLTNIYLQLDHVRVINGRVDIDFHVRFNGRTERVHLHILKINGKWIVEHLEVR
Reply: 1.36

Task item: // same read-out, input: SHEEEIAREISRDLFRAFLTGDEDWLLKNLDPDARLHVSVGDKSEHFHGREEVMKFVREWRVHRIEIKELRVFNGRIHSRVHVYGEFNGQRFRTDIHENYNIVDGRIKEIHVEIR
Reply: 1.66

----------
assay: protease stability score; higher = more stable; yeast display proteolysis, trypsin and chymotrypsin;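 also: relative to predicted unfolded state with 0 unfolded-like and 1 meaning tenfold more protease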
I'd appreciate it if you could supply protease stability score values for the items below.
I only need the number, thanks.

Task item: Given the sequence SEDEKNHKIAMRILRRVIETGDERELEELADPDVRIVIGDKFHVGRDVWHEWAHRFDHTHHIEVKDHRHFDGRITLDTEVDVHIDGRRSRMRVIIIARKVDGVWFLHELRIH , what is its reported protease stability score?
Reply: 1.31

Task item: // same read-out, input: DETHKLLEDLTRLFWELTHTGDEEIVEELADPHVRSEINGKERHGREEHVKAWREWRIERMTLRSVSVINGQMSIDGEIVLKIGDKRIETRIEIRIHIVDGVMKSVKIHLE
Reply: 0.937

Task item: // same read-out, input: TEDSKLITDVLRHFTEAFITGDEHTLKRMADPHVRTEWDGVHLHGWEKFLKFIVTEHRKLGIDHMRVEVDHIESYGDKIHVEGTLVVIINGQEISRHVELVMVKIDGVWLFKSRHFR
Reply: 0.706

Task item: // same read-out, input: DEDDEFERLFWKKWVDALRTGNEEIIRKMVDPNVKIVFNGKELHGREAVDIVLKRIDHIDDIKLRHSRVVDGRVEITTKIHMKVGDKSIDSETHMSFEKIDGRWIITEMFFV
Reply: 2.59

Task item: // same read-out, input: SEDDHRAHEWFRIVFHWLLTGDEEHFDRYADPHTKVDINGVEFHGREEVRRWIYEIRLKDNRIRSVRAVGEKNESDGHRNGHIGDKHIVTDVEVRLHVVDGRIKSIHIIIH
Reply: 0.981

Task item: // same read-out, input: TEEEEMYHKFAHEIARNLVTGDEDRLLELADPHVKSNVNGVELHGMEHFLEFWIHIVKEIRVHLRITHVTVINGVVIHDSEYEFIVNGKRHTTRVEIWWVVVDGRVHRVELRFK
Reply: 1.17

----------
I'd appreciate it if you could supply protease stability score values for the items below.
assay: protease stability score; higher = more stable; yeast display proteolysis, trypsin and chymotrypsin;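 also: relative to predicted unfolded state with 0 unfolded-like and 1 meaning tenfold more protease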
I only need the number, thanks.

Task item: Given the sequence SEDEELVHHIIKLWLESLVTGDERVFEELADPNVLLVVGEKTHHGRELYSEMFEILVTEIRFHEVHIRHYRHQGDKVKLDLRIDGEIDGQKTHDKAHIILHKIDGRWQLRSMIIH , what is its reported protease stability score?
Reply: 1.33

Task item: // same read-out, input: SEDEEFLEWTMRLYTKAHATGDEETLTDLMDPNTRLDINGVIWIGREFVRKHHEDLGAKHSRMDLRIRDRDSINGRLIVHTRFRLKIHIGDKDISIEHHTTLYMIKIDGRWHIREIEIR
Reply: 1.09

Task item: // same read-out, input: DEDTELSKHFDDVFAEYVETGDEHSLRHLMDPNTRILVNGVDLVGWELVLDHLDRHLKEMRIKRVTTHEMRIYGDKVTIHSKLKMHIDGRDVDTDTEIIVKKVDGKWIMHFVNLH
Reply: 2.25

Task item: // same read-out, input: DEILHAWSRALTILLEIWKTGNEEEVEKMFDPNTRLIIGDKILHGREHIEDFVRRVDVADMHEFRVHDSHKYGEKIDIDGHVTGRLVIGDKEVRQETRVRSIIIKVDGKWIIHRLTFI
Reply: 0.907

Task item: // same read-out, input: NEDERETELFLRLFRRALLTGDWRAIEDLMDPNVMIHVNGREFHGREQYYKIVMNELTHWRLHHTKIDDIRLYDGVLRVQLRLQGEINGREDFLHLHVIIEKIDGKWIFRSVEIR
Reply: 1.91

Task item: // same read-out, input: DELREDSERAEEWLITASETGNEEDILKLADPNTRIDINGKDLHGRESLEHFIRRYKGVTVRIRHRDIINGKLHLDTELRIDGVTLRTELIITKVNGRWYLEEQIVR
Reply: 1.07

Task item: // same read-out, input: DEDEEDIRKAVKDFSENFQTGDEDRFKELADPNDRMHVNGREVHGRENIVKSLREEWKRLGVDHIHFEVRRITVQGEKIIVFSFLRIDNENERHHEDVLIIMRKVDGRWMIRTIRVR
Reply: 1.45

Task item: // same read-out, input: DEEEEDSEDAVRFIMLALDTGDEKLLTSLADPNMRLDVNGREFHGREDFIHFLEEVRKKLGVDRIRTHVRETHVINGRVHVRGELRWNGRTHESHVHIIKIDGKWVIKSVHIR
Reply: 2.11

Task item: // same read-out, input: SDDEHAAHLIIFIWTFALITGDEQTLKELLDPNVKNEFNGVELHGREQVEEHVRRYDWVTDFKFRVDDIQHQGEKIILDGTLVITMEFDGRREDIKSRFILIVRKVDGKWHLERLIIV
Reply: 1.86

Task item: // same read-out, input: SEEREKAERISRTLFFNFFTGDEDDWNKRADPTDRFIIGDKELVGMEEISKFLKHLRVHHEQLSDLRINLQGDKLHSHLDGYVDIEFNGRRRRTRVIIIIVVFKVNGRWTIEQFEVEFH
Reply: 1.73

Task item: // same read-out, input: TEEEEHTDMVRRIWVEIAKTGDERSWEKYFDPNARMHIFFNGQEIELHGRETITKWLHETLTRIKGLRMEIEHFENIGDKVHMDTRFIIGDKERKSEVEIIVVDGRLKSVTIRHR
Reply: 1.78

----------
assay: protease stability score; higher = more stable; yeast display proteolysis, trypsin and chymotrypsin;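 also: relative to predicted unfolded state with 0 unfolded-like and 1 meaning tenfold more protease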
Note to self: values exactly at 0.8 are y. So protease stability score at or above 0.8 is y, below is n.

Task item: Determine whether measured protease stability score meets or exceeds 0.8 for DEEERDMKHSSERLLRTWVTGDEDLLRTLADPDARHHLEVDGVHLHLHGMEHFSKWTTDLIEKLGIKHFDMKDLDVQGDKIHVHSTFHYGDKTFEVRLIVVKIDGKWLLSHSSFIVR
Reply: n

Task item: // same read-out, input: NEDEEYVRLAHEILVETLRTGDEHITKRLADPHVRIDVGDKELHGWEDWLELLTHEARHLRTEIRVRNFDSQGDFIRVEVIIIIVVNGKRIEREVHYFSLKVDGRWLLTHVEIK
Reply: n

Task item: // same read-out, input: SEDEDFAKKWTDEILTAFLTGDWKLLSDLVDPNVRVIYGEFHFHGREQTIKWLEHHYREIRIHDYKIKHIEVQGEKVIVDGEVDRHYNGRRHRIHTEIIIIIFNGVIREIEFREN
Reply: y

Task item: // same read-out, input: DELEEILEELFRRMLEWLRTGDEEAMSKLADPHYKLLWNGREHVGREVILERLEKINQHLRIRHIHIHEIRFIDGRVESDTRVDGEVNGRRTEYTQKVIIFIVNGRFKFLEIQLR
Reply: y

Task item: // same read-out, input: DEEDRRYEHWFKLFLEIFLTGDFDQWKKLLDPHVRVDVNGQERVGRDQISEAMRRLLEILGVDHIEVEEVHLQGEKVNLNTQENVNGVETHSRIHVIVINGRLRHSKMDIN
Reply: y

Task item: // same read-out, input: SELEELSKEALERHNKDLRTGDWEELWRLLDPNVKLIVNGRHVHGREDATKFLLDWVRQVDHIRSIHIEDYKFQGNKLILHVRYQMDVDGKRDSREMTIYASKVDGRWIVESIEFR
Reply: y

Task item: // same read-out, input: TEEERDMKHLAELALESFLTGDFEIIKKLADPNVRSVIDGRDYHGMEEVHRYLEELLRMLGVKVSRIEDERLRIINGRVTVETDIRLNVDGKIFRVTLHFFFHKFNGRWRIEEIRIHIE
Reply: n

Task item: // same read-out, input: REEEEHAEKVVKLMLHWLHTGDEEKFINNADPNVKLQIDGQRIHGWDDWERRMNEKLQRVDYIDNVVIRHIDNQGDKAIFHGELRGIQGDKHFTFHVELRIRVVNGVIHEMEIIIR
Reply: y

Task item: // same read-out, input: DEEEESYRIAEHLFREVMETGDERISEHLADPRTRFQVGDKTFHGMDEWREVLHRMLVEIRMHDVKVHDVKSIGDKLIIDGYLYIEINGRRTSIYTELYWLKVNGQWRLHYITMH
Reply: y

Task item: // same read-out, input: DELHNLLEHALKIVIELWRTGDWRLIDKMLDPNTLLNFNGKNIHGREEIDRLRKELGIEFFAIEDQDYRRMHIQGDKIELDGDSDIIINGQRRRTHVHLHLEKINGRWVDRRIIFL
Reply: y
